- Experimental setup: 318.15 K; 101 kPa; Liquid
Quantity measured: log10 viscosity (log10 of the value in mPa·s)
Form field - Quantity: viscosity; Unit: mPa·s; Scale: log10

Illustrative cases are given below, each with its answer.
INSERT INTO assay_data (compound, quantitative_readout) VALUES
  ('CCO', -0.11),
  ('CCCCCCCC[n+]1ccn(C)c1.F[B-](F)(F)F [1-methyl-3-octylimidazolium tetrafluoroborate]', 2.05);

Ask: Which measured log10 viscosity value corresponds to CCn1cc[n+](C)c1.F[B-](F)(F)F [1-ethyl-3-methylimidazolium tetrafluoroborate] ?
Reply: 1.28

Ask: Which measured log10 viscosity value corresponds to CCCCn1cc[n+](C)c1.F[B-](F)(F)F [1-butyl-3-methylimidazolium tetrafluoroborate] ?
Reply: 1.61

Ask: Which measured log10 viscosity value corresponds to CCCCCCn1cc[n+](C)c1.F[B-](F)(F)F [1-hexyl-3-methylimidazolium tetrafluoroborate] ?
Reply: 1.84
